- System: EGFR (C797S L858R) (Homo sapiens, UniProt P00533, C797S/L858R)
- Construct: purchased signalchem
- Sequence (P00533 25-1210 C797S/L858R): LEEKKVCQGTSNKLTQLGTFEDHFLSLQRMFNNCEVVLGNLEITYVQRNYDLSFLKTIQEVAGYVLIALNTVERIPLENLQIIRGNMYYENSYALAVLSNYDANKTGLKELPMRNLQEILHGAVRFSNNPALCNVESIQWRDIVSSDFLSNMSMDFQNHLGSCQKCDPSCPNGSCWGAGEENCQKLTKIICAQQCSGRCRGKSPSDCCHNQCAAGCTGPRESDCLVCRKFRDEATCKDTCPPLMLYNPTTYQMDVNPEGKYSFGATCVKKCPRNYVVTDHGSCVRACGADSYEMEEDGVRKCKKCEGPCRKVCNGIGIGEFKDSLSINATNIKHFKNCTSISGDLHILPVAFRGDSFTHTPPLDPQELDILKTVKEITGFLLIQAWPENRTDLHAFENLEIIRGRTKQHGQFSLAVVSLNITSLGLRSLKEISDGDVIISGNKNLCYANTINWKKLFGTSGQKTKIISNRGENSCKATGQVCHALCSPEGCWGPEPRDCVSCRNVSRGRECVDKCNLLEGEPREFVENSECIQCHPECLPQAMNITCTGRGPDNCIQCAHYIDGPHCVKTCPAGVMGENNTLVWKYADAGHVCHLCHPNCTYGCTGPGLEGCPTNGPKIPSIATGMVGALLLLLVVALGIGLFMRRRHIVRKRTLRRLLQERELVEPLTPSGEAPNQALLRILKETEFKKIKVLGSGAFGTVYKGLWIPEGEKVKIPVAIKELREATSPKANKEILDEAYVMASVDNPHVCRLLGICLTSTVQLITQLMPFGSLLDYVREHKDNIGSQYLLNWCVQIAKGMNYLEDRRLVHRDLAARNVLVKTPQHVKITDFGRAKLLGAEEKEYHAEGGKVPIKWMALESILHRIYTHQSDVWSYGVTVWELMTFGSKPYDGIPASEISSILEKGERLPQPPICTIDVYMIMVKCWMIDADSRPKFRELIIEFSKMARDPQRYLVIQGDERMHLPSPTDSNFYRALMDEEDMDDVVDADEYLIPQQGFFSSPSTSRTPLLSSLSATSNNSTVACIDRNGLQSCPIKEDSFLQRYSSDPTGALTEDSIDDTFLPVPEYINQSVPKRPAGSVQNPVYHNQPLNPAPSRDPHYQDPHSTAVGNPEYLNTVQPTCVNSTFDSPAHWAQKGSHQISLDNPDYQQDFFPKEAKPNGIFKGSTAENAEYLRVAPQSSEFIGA
- Assay Text: Inhibition of EGFR (C797S L858R) biochemical enzymatic activity (HTRF)
- Applied Conditions: EGFR L858-C797S, 1 mM ATP, 1 h, room temperature, read-out: IC50 (nM) @L858-C797S
Label Yes when IC50 < 50 nM; otherwise No.

Molecule: CN1CCC2CN(c3ccc4nc5n(c4c3)C34CCC(CC3)CN(CCOc3c(cnn3C)-c3cc(cn(C)c3=O)C(=O)N5)C4)CC21 (stereo not shown) [Example A127]
System: EGFR (C797S L858R) (Homo sapiens, UniProt P00533, C797S/L858R)
Group: No
//
Molecule: Cn1ncc2c1OCCN1CCCCC(C)(C1)n1c(nc3ccc(N4CCOCC4)cc31)NC(=O)c1cc-2c(=O)n(C)c1 (stereo not shown) [Example A13]
System: EGFR (C797S L858R) (Homo sapiens, UniProt P00533, C797S/L858R)
Group: No
//
Molecule: Cc1cc2cc(n1)-c1cnn(C3CC3)c1OCCN(CC(F)(F)F)CCn1c(nc3ccccc31)NC2=O [Example B6]
System: EGFR (C797S L858R) (Homo sapiens, UniProt P00533, C797S/L858R)
Group: No
//
Molecule: C[C@@H]1CCCOc2c(cnn2C)-c2cc(cn(C)c2=O)C(=O)Nc2nc3ccc(N4CCNCC4)cc3n2C1 [Example A55]
System: EGFR (C797S L858R) (Homo sapiens, UniProt P00533, C797S/L858R)
Group: Yes
//
Molecule: C[C@@H]1CCCOc2c(cnn2C)-c2cc(cn(C)c2=O)C(=O)Nc2nc3ccc(N4CCC5(CN(C)C5)C4)cc3n2C1 [Example A43]
System: EGFR (C797S L858R) (Homo sapiens, UniProt P00533, C797S/L858R)
Group: Yes

Q) Below 50 nM on IC50? Entry Cn1ncc2c1OCCN1CC3CCC(CC3)(C1)n1c(nc3ccc(N4CCOCC4)cc31)NC(=O)c1cc-2c(=O)n(C)c1 [Example A74]
A) No

Q) Then CC1CCCCOc2c(cnn2C)-c2cc(cn(C)c2=O)C(=O)Nc2nc3ccc(N4CCN(C)CC4)cc3n21 (stereo not shown) [Example A19] ?
A) No

Q) Check CCC1CCCOc2c(cnn2C)-c2cc(cn(C)c2=O)C(=O)Nc2nc3ccc(N4CCN(C)CC4)cc3n2C1 (single isomer, unassigned) [Example A16B] too.
A) Yes

Q) How about CN(C)CCCN(C)c1ccc2nc3n(c2c1)C12CCC(CC1)CN(CCOc1c(cnn1C)-c1cc(cn(C)c1=O)C(=O)N3)C2 [Example A125] ?
A) No

Q) Also, C[C@@H]1CCCOc2c(cnn2C)-c2cc(cn(C)c2=O)C(=O)Nc2nc3ccc(N4CCC(N(C)C)C4)cc3n2C1 (stereo partly shown) [Example A27] please.
A) Yes

All values here come from patent US20260365670A1.
